# credit: patent US20240158446A1

tested on: human lung cancer strain NCI-H441; test: cells; conditions: NCI-H441, 96 h, read-out: NCI-H441 IC50 (nM), NCI-H441 cell proliferation, 4 days, CellTiter-Glo;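 further: cell proliferation inhibition after four days measured by CellTiter-Glo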
*1 amine or outer side, *2 acyl side, *3 side chain or, on linkers, in order; H or OH if unused. Where a SMILES comes first, the peptide text is derived from it. Bridges are numbered along the chain shown (N, C = ends). [ ]: non-standard residue; d: D form. The star is where a group is joined. hPhe(3-Cl-4-CF3) = N[C@@H](CCc1ccc(C(F)(F)F)c(Cl)c1)C(=O)O; NPrPhe(4-CF3) = CCCN[C@@H](Cc1ccc(C(F)(F)F)cc1)C(=O)O; NPrAsp = CCCN([C@@H](CC(=O)[*:3])C(=O)[*:2])[*:1]; NMeGly(cPent) = CN[C@H](C(=O)O)C1CCCC1; NMeD = CN[C@@H](CC(=O)O)C(=O)O; NMeL = CN[C@@H](CC(C)C)C(=O)O; NMeNva = CCC[C@H](NC)C(=O)O; Morpholide = C1CN(*)CCO1; Piperidide = C1CCN(*)CC1; Ac4c = NC1(C(=O)O)CCC1; Sar = CNCC(=O)O
measurement_kind: IC50 (nM)
# number only, unit nM dropped from output

Here are 9 molecules together with their reported answers.
[[record]]
molecule = "CCO[C@@H]1C[C@H]2C(=O)NC3(CC(F)(F)C3)C(=O)N(C)[C@@H](C3CCCC3)C(=O)N(C)[C@H](CC)CC(=O)N(C)[C@@H](CC3CC3)C(=O)N[C@@H]([C@@H](C)CC)C(=O)N(C)CC(=O)N(C)[C@H]3C/C=C\\CCN(C3=O)[C@@H](Cc3ccc(C(F)(F)F)cc3)C(=O)N(C)CC(=O)N[C@@H](CCc3cc(F)c(C(F)(F)F)c(F)c3)C(=O)N2C1 [PP1633]"
measurement_kind = "IC50"
value_unit = "nM"
result = 15.1

[[record]]
molecule = "CCO[C@@H]1C[C@H]2C(=O)NC3(CC(C)(C)C3)C(=O)N(C)[C@@H](C3CCCC3)C(=O)N3CCC[C@@H]3CC(=O)N(C)[C@@H](CC3CC3)C(=O)N[C@@H]([C@@H](C)CC)C(=O)N(C)CC(=O)N(C)[C@H]3C/C=C\\CCN(C3=O)[C@@H](Cc3ccc(C(F)(F)F)cc3)C(=O)N(C)CC(=O)N[C@@H](CCc3cc(F)c(C(F)(F)F)c(F)c3)C(=O)N2C1 [PP1611]"
measurement_kind = "IC50"
value_unit = "nM"
result = 28

[[record]]
molecule = "CCC[C@H]1C(=O)N[C@@H]([C@@H](C)CC)C(=O)N(C)CC(=O)N(C)[C@H]2C/C=C\\CCN(C2=O)[C@@H](Cc2ccc(C)cc2)C(=O)N(C)CC(=O)N[C@@H](CCc2ccc(C(F)(F)F)c(OC)c2)C(=O)N2C[C@@H](C)C[C@H]2C(=O)NC2(CCC2)C(=O)N(C)[C@@H](C2CCCC2)C(=O)N(C)[C@H](C(=O)N(C)C)CC(=O)N1C [PP1857]"
measurement_kind = "IC50"
value_unit = "nM"
result = 5

[[record]]
molecule = "CCCN(C)C(=O)[C@@H]1CC(=O)N(C)[C@@H](C(C)C)C(=O)N[C@@H]([C@@H](C)CC)C(=O)N(C)CC(=O)N(C)[C@H]2C/C=C\\CCN(C2=O)[C@@H](Cc2ccc(C(F)(F)F)cc2)C(=O)N(C)CC(=O)N[C@@H](CCc2cc(F)c(C(F)(F)F)c(F)c2)C(=O)N2C[C@H](OCC)C[C@H]2C(=O)NC2(CCC2)C(=O)N(C)[C@@H](C2CCCC2)C(=O)N1C [PP1992]"
measurement_kind = "IC50"
value_unit = "nM"
result = 17.7

[[record]]
molecule = "CC[C@H](C)[C@@H]1NC(=O)[C@H](CC(C)C)N(C)C(=O)C[C@@H](C(=O)N(C)C)N(C)C(=O)[C@H](C2CCCC2)N(C)C(=O)C2(CCC2)NC(=O)[C@@H]2C[C@H](C)CN2C(=O)[C@H](CCc2cc(F)c(C(F)(F)F)c(F)c2)NC(=O)CN(C)C(=O)[C@H](Cc2ccc(C)cc2)N2CC/C=C\\C[C@@H](C2=O)N(C)C(=O)CN(C)C1=O [PP1864]"
measurement_kind = "IC50"
value_unit = "nM"
result = 10.2

[[record]]
molecule = "CC[C@H](C)[C@@H]1NC(=O)[C@H](CC)N(C)C(=O)C[C@@H](C(=O)N(C)C)N(C)C(=O)[C@H](C2CCCC2)N(C)C(=O)C2(CC(C)(C)C2)NC(=O)[C@@H]2C[C@H](C)CN2C(=O)[C@H](CCc2ccc(C(F)(F)F)c(Cl)c2)NC(=O)CN(C)C(=O)[C@H](Cc2ccc(C)cc2)N2CC/C=C\\C[C@@H](C2=O)N(C)C(=O)CN(C)C1=O [PP1844]"
measurement_kind = "IC50"
value_unit = "nM"
result = 12.3

[[record]]
molecule = "CCC[C@H]1C(=O)N[C@@H]([C@@H](C)CC)C(=O)N(C)CC(=O)N(C)CC(=O)N(CCC)[C@@H](Cc2ccc(C(F)(F)F)cc2)C(=O)N(C)CC(=O)N[C@@H](CCc2ccc(C(F)(F)F)c(Cl)c2)C(=O)N2CCC[C@H]2C(=O)NC2(CCC2)C(=O)N(C)[C@@H](C2CCCC2)C(=O)N(CCC)[C@H](C(=O)N2CCOCC2)CC(=O)N1C [PP1954] ([NMeNva]I[Sar][Sar][NPrPhe(4-CF3)][Sar][hPhe(3-Cl-4-CF3)]P[Ac4c][NMeGly(cPent)][NPrAsp]-Morpholide; lactam N-11)"
measurement_kind = "IC50"
value_unit = "nM"
result = 8.1

[[record]]
molecule = "CCO[C@@H]1C[C@H]2C(=O)NC3(CC(C)(C)C3)C(=O)N(C)[C@@H](C3CCCCC3)C(=O)N(C)[C@H](C(=O)N(C)C)CC(=O)N(C)[C@@H](CC)C(=O)N[C@@H]([C@@H](C)CC)C(=O)N(C)CC(=O)N(C)[C@H]3C/C=C\\CCN(C3=O)[C@@H](Cc3ccc(C(F)(F)F)cc3)C(=O)N(C)CC(=O)N[C@@H](CCc3cc(F)c(C(F)(F)F)c(F)c3)C(=O)N2C1 [PP1942]"
measurement_kind = "IC50"
value_unit = "nM"
result = 25.7

[[record]]
molecule = "CCO[C@@H]1C[C@H]2C(=O)NC3(CC(C)(C)C3)C(=O)N(C)[C@@H](C3CCCC3)C(=O)N(C)[C@H](CC)CC(=O)N(C)[C@@H](CC3CC3)C(=O)N[C@@H]([C@@H](C)CC)C(=O)N(C)CC(=O)N(C)[C@H]3C/C=C\\CCN(C3=O)[C@@H](Cc3ccc(C(F)(F)F)cc3)C(=O)N(C)CC(=O)N[C@@H](CCc3cc(F)c(C(F)(F)F)c(F)c3)C(=O)N2C1 [PP1629]"
measurement_kind = "IC50"
value_unit = "nM"
result = 20.7


Now look at this entry.
q: What value of measured IC50 is listed for CCCN1C(=O)CN(C)C(=O)CN(C)C(=O)[C@H]([C@@H](C)CC)NC(=O)[C@H](CC(C)C)N(C)C(=O)C[C@@H](C(=O)N2CCCCC2)N(C)C(=O)[C@H](C2CCCC2)N(C)C(=O)C2(CCC2)NC(=O)[C@@H]2CCCN2C(=O)[C@H](CCc2ccc(C(F)(F)F)c(Cl)c2)NC(=O)CN(C)C(=O)[C@@H]1Cc1ccc(C(F)(F)F)cc1 [PP1930] ([NMeL]I[Sar][Sar][NPrPhe(4-CF3)][Sar][hPhe(3-Cl-4-CF3)]P[Ac4c][NMeGly(cPent)][NMeD]-Piperidide; lactam N-11) ?
a: 7
